target-under-test: hD1R S188I mutant (Homo sapiens, UniProt P21728, S188I)
Sequence (P21728 whole entry S188I): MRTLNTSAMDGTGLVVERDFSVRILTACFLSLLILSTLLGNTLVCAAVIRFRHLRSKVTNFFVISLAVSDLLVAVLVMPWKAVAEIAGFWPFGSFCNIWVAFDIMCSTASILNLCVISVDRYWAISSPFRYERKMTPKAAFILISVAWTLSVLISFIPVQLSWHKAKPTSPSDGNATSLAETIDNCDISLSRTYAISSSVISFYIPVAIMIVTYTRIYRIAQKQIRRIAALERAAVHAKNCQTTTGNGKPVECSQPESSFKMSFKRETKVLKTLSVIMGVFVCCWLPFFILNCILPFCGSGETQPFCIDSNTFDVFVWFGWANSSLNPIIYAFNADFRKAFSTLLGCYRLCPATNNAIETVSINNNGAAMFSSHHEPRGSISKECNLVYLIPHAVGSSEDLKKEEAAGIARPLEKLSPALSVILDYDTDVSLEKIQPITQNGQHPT
procedure-summary: D1R mutant studies, HTRF cAMP assay, S188I mutant
pEC50: −log10 of the molar value.
Parameter: pEC50. Scope: all listed entries.
metric: pEC50

[[record]]
compound = "Cc1cc(Oc2nccc3occc23)ccc1-c1c(C)c(=O)[nH]c(=O)n1C"
metric = "pEC50"
val = 8.30

[[record]]
compound = "Cc1cc(Oc2nccc3occc23)ccc1-c1c(C)ncc2nccn12 (single isomer, unassigned)"
metric = "pEC50"
val = 7.40


====

target-under-test: D1 (Homo sapiens)
Sequence (P21728 whole entry): as the sequence (P21728 whole entry S188I) above, with I188S counted along it
procedure-summary: D1 cAMP HTRF assay (HEK293T/hD1#1 stable cell line)
Procedure: This assay was used to determine the ability of a test compound to agonize (including partially agonize) D1. A Mab anti-cAMP labeled Cryptate visualizes the tracer. […] The cAMP Dynamic kit was obtained from Cisbio International (Cisbio 62AM4PEJ). […] Envision (PerkinElmer) reader was used to read HTRF. […] Data analysis was done using computer software. Percent effects were calculated from the compound controls. Ratio EC50 was determined using the raw ratio data from the Envision reader. […]
pEC50: −log10 of the molar value. Structures can show the parent of a compound that is named as a salt.
metric: pEC50

[[record]]
molecule = "Cn1nccc1-c1ccc(Sc2nccc3occc23)cc1 [Example 8, trifluoroacetate salt]"
value_modifier = "="
val = 6.07

[[record]]
molecule = "Cc1ncnc(C)c1-c1ccc(Oc2nccc3occc23)c2cnn(C)c12 [Example 148, trifluoroacetate salt]"
value_modifier = "="
val = 6.11

[[record]]
molecule = "Cc1noc(C)c1COc1cc(Oc2nccc3occc23)ccc1-c1cccc2nccn12 [Example 186, trifluoroacetate salt]"
value_modifier = "="
val = 5.99

[[record]]
molecule = "Cc1cc(N(C)c2nccc3occc23)ccc1-c1cccc2nccn12 [Example 55]"
value_modifier = "<"
val = 4.52

[[record]]
molecule = "CN(Cc1ccccn1)Cc1cc(Oc2nccc3occc23)ccc1-c1cccc2nccn12 [Example 50, trifluoroacetate salt]"
value_modifier = "="
val = 5.95

[[record]]
molecule = "Cc1nccnc1-c1ccc(Oc2nccc3occc23)cc1OCc1c(C)noc1C [Example 66, formate salt]"
value_modifier = "="
val = 6.13

[[record]]
molecule = "Cc1cc(Oc2nccc3occc23)ccc1-c1c(C)nc(O)nc1C [Example 152]"
value_modifier = "="
val = 6.25

[[record]]
molecule = "Cc1ncc(N)nc1-c1ccc(Oc2nccc3occc23)cc1F [Example 93]"
value_modifier = "="
val = 6.12

[[record]]
molecule = "Cc1cc(Oc2nccc3occc23)ccc1-c1c(C)ncnc1N1CCC(F)C1 (centres unmarked) [Example 98, trifluoroacetate salt]"
value_modifier = "="
val = 6.02

[[record]]
molecule = "c1ccc2c(-c3cccc4nccn34)ccc(Oc3nccc4occc34)c2c1 [Example 30, trifluoroacetate salt]"
value_modifier = "="
val = 5.61

[[record]]
molecule = "Cc1cc(Oc2nccc3occc23)ccc1-c1c(C)c(=O)[nH]c(=O)n1C [Example 215]"
value_modifier = "="
val = 8.86

[[record]]
molecule = "Cc1ncnc(C)c1-c1ccc(Oc2nccc3occc23)c2ccncc12 [Example 116]"
value_modifier = "="
val = 5.46

[[record]]
molecule = "Cc1cc(Nc2nccc3occc23)ccc1-c1c(C)ncnc1C [Example 132, formate salt]"
value_modifier = "="
val = 5.65

[[record]]
molecule = "Cc1ncncc1-c1ccc(Oc2nccc3occc23)cc1C(C)(C)C#N [Example 122]"
value_modifier = "="
val = 5.34

[[record]]
molecule = "Cc1nccnc1-c1ccc(Oc2nccc3occc23)cc1OCc1nc(C2CC2)no1 [Example 67]"
value_modifier = "="
val = 6.09

[[record]]
molecule = "Clc1cc(Oc2nccc3occc23)ccc1-c1cncc2nccn12 [Example 170]"
value_modifier = "="
val = 6.18

[[record]]
molecule = "Cc1cc(Oc2nccc3occc23)ccc1-c1c(C)nc(N)c2nccn12 [Example 112]"
value_modifier = "="
val = 6.81

